Listed next: entries and their corresponding % inhibition.
tested on: human PKK mRNA; test: Antisense inhibition of human PKK mRNA in HepaRG cells, 1,000 nM, MOE/deoxy/cEt oligonucleotides (Example 3); assay type: cell-based; conditions: Table 22 experiment; HepaRG cells, electroporation with 1,000 nM antisense oligonucleotide, approx. 24 hours; PKK mRNA by RT-PCR (RTS3454), relative to untreated control cells
Strand notation (5' to 3'): a small letter for the sugar, then the base; units joined by * are phosphorothioate-linked, units joined directly phosphodiester-linked; [ ] holds rarer units or linkages, { } end groups; capitals alone tell only the bases. e = 2'-O-(2-methoxyethyl) (MOE); k = constrained ethyl (cEt); [5mC] = 5-methylcytosine; d = 2'-deoxy (DNA)

Here are 3 substances together with their reported answers.
Value of measured % inhibition for the entry 547875 (antisense e[5mC]*eA*k[5mC]*dT*dG*d[5mC]*dT*dA*dA*d[5mC]*d[5mC]*dT*dT*kA*kG*eA) [compound 547875] : 57%

Value of measured % inhibition for the entry 547857 (antisense e[5mC]*eT*k[5mC]*dA*dT*dA*dT*d[5mC]*dA*dA*d[5mC]*dT*d[5mC]*k[5mC]*kT*eT) [compound 547857] : 84%

Value of measured % inhibition for the entry 547860 (antisense eT*e[5mC]*k[5mC]*dT*d[5mC]*dT*d[5mC]*dA*dT*dA*dT*d[5mC]*dA*kA*k[5mC]*eT) [compound 547860] : 70%

New cases:
Value of measured % inhibition for the entry 547919 (eG*eA*kA*d[5mC]*d[5mC]*d[5mC]*dT*dG*dG*d[5mC]*dA*dA*d[5mC]*kA*kT*e[5mC]; antisense) [compound 547919] : 73%

Value of measured % inhibition for the entry 547908 (e[5mC]*eA*kA*dT*dT*dT*d[5mC]*dT*dG*dA*dA*dA*dG*kG*kG*e[5mC]; antisense) [compound 547908] : 71%

Value of measured % inhibition for the entry 547895 (eA*eG*kG*d[5mC]*dA*dA*dT*dT*dG*dT*dT*d[5mC]*d[5mC]*kG*kG*eT; antisense) [compound 547895] : 94%

Value of measured % inhibition for the entry 547905 (eT*eA*k[5mC]*dT*d[5mC]*dA*dG*d[5mC]*dA*d[5mC]*d[5mC]*dT*dT*kT*kA*eT; antisense) [compound 547905] : 59%

Value of measured % inhibition for the entry 547886 (e[5mC]*eG*kG*dT*dA*d[5mC]*dT*d[5mC]*dT*dG*d[5mC]*d[5mC]*dT*kT*kG*eT; antisense) [compound 547886] : 89%

Value of measured % inhibition for the entry 547848 (antisense eA*eT*kG*dT*d[5mC]*dT*d[5mC]*dG*dA*dT*dG*dG*d[5mC]*kA*kA*eG) [compound 547848] : 79%

Value of measured % inhibition for the entry 531231 (eT*eA*eT*e[5mC]*eA*d[5mC]*dT*dG*dT*dA*d[5mC]*dT*dA*dG*dT*eT*eT*e[5mC]*e[5mC]*eT) [compound 531231] : 75%

Value of measured % inhibition for the entry 547873 (antisense e[5mC]*eT*kG*d[5mC]*dT*dA*dA*d[5mC]*d[5mC]*dT*dT*dA*dG*kA*k[5mC]*eA) [compound 547873] : 82%

Value of measured % inhibition for the entry 547874 (antisense eA*e[5mC]*kT*dG*d[5mC]*dT*dA*dA*d[5mC]*d[5mC]*dT*dT*dA*kG*kA*e[5mC]) [compound 547874] : 60%

###

Listed next: entries and their corresponding IC50.
test system: human PKK mRNA; test: Dose-dependent antisense inhibition of human PKK in HepaRG cells, 0.19-5.00 uM (Example 5); assay type: cell-based; conditions: 4 point dose response, HepaRG cells; Table 37
Strand notation (5' to 3'): a small letter for the sugar, then the base; units joined by * are phosphorothioate-linked, units joined directly phosphodiester-linked; [ ] holds rarer units or linkages, { } end groups; capitals alone tell only the bases. e = 2'-O-(2-methoxyethyl) (MOE); [5mC] = 5-methylcytosine; d = 2'-deoxy (DNA)
Entry rule: numbers only, all in nM.

Here are 4 substances together with their reported answers.
Value of measured IC50 for the entry 547731 (eG*eG*eA*eT*eT*dG*dG*dT*dG*dG*dT*dG*dG*dG*dA*eT*eT*eG*eG*eT; antisense) [compound 547731] : 5000

Value of measured IC50 for the entry 546304 (antisense e[5mC]*eT*eT*eT*eT*dA*dT*dT*dT*dG*dT*dG*dA*dG*dA*eA*eA*eG*eG*eT) [compound 546304] : 2100

Value of measured IC50 for the entry 531231 (eT*eA*eT*e[5mC]*eA*d[5mC]*dT*dG*dT*dA*d[5mC]*dT*dA*dG*dT*eT*eT*e[5mC]*e[5mC]*eT) [compound 531231] : 500

Value of measured IC50 for the entry 547622 (antisense eG*eT*e[5mC]*eA*e[5mC]*dT*dG*dT*dA*d[5mC]*d[5mC]*dT*dA*dT*dA*eA*e[5mC]*eT*e[5mC]*eT) [compound 547622] : 900

Field: next substance
Value of measured IC50 for the entry 547618 (antisense eA*e[5mC]*eT*eG*eT*d[5mC]*d[5mC]*dT*dA*dT*dA*dT*d[5mC]*dA*d[5mC]*eT*eG*eT*eA*e[5mC]) [compound 547618] : 1300

###

system: human PKK mRNA; assay: Antisense inhibition of human PKK mRNA in HepaRG cells, 5,000 nM (Example 2); format: cell-based; conditions: human PKK mRNA in HepaRG cells; 5-10-5 gapmers; Table 14
Strand notation (5' to 3'): a small letter for the sugar, then the base; units joined by * are phosphorothioate-linked, units joined directly phosphodiester-linked; [ ] holds rarer units or linkages, { } end groups; capitals alone tell only the bases. e = 2'-O-(2-methoxyethyl) (MOE); [5mC] = 5-methylcytosine; d = 2'-deoxy (DNA)
Quantity Kind: % inhibition (%)
Entry rule: numbers only, all in %.

Hey, human PKK mRNA data for 546876 (eG*eT*e[5mC]*e[5mC]*eT*dA*dT*dA*dT*d[5mC]*dA*d[5mC]*dT*dG*dT*eA*e[5mC]*e[5mC]*eT*eG; antisense) [compound 546876] : % inhibition came out at 87

Hey, human PKK mRNA data for 547622 (antisense eG*eT*e[5mC]*eA*e[5mC]*dT*dG*dT*dA*d[5mC]*d[5mC]*dT*dA*dT*dA*eA*e[5mC]*eT*e[5mC]*eT) [compound 547622] : % inhibition came out at 88

Field: next substance
Hey, human PKK mRNA data for 546852 (e[5mC]*eA*eG*eT*eA*dT*d[5mC]*dA*d[5mC]*dT*dG*dT*d[5mC]*d[5mC]*dT*eA*eT*eA*eT*e[5mC]; antisense) [compound 546852] : % inhibition came out at 94

###

Listed next: entries and their corresponding % inhibition.
test system: human PKK mRNA; assay: Antisense inhibition of human PKK mRNA in HepaRG cells, 3,000 nM (Example 1); type: cell-based; details: Table 4; HepaRG cells, electroporation with 3,000 nM antisense oligonucleotide, approx. 24 hours; PKK mRNA by RT-PCR (RTS3454), relative to untreated control cells
Strand notation (5' to 3'): a small letter for the sugar, then the base; units joined by * are phosphorothioate-linked, units joined directly phosphodiester-linked; [ ] holds rarer units or linkages, { } end groups; capitals alone tell only the bases. e = 2'-O-(2-methoxyethyl) (MOE); [5mC] = 5-methylcytosine; d = 2'-deoxy (DNA)
Entry rule: numbers only, all in %.

Here are 2 substances together with their reported answers.
Value of measured % inhibition for the entry 531216 (eA*eA*eA*e[5mC]*eA*d[5mC]*dA*dG*dG*dA*dA*dT*dT*dT*dG*e[5mC]*eA*eG*eA*e[5mC]; antisense) [compound 531216] : 33

Value of measured % inhibition for the entry 531227 (eT*eA*e[5mC]*e[5mC]*eA*dA*dT*dT*dT*d[5mC]*dT*dG*dA*dA*dA*eG*eG*eG*e[5mC]*eA; antisense) [compound 531227] : 72

Field: next substance
Value of measured % inhibition for the entry 531172 (antisense eT*eT*e[5mC]*eA*eA*dG*d[5mC]*d[5mC]*dT*dG*dG*dG*d[5mC]*dA*dG*e[5mC]*eA*e[5mC]*eA*eG) [compound 531172] : 71

###

test system: human PKK mRNA; experiment: Antisense inhibition of human PKK mRNA in HepaRG cells, 5,000 nM (Example 2); type: cell-based; conditions: Table 13; human PKK mRNA in HepaRG cells; 5-10-5 gapmers
Strand notation (5' to 3'): a small letter for the sugar, then the base; units joined by * are phosphorothioate-linked, units joined directly phosphodiester-linked; [ ] holds rarer units or linkages, { } end groups; capitals alone tell only the bases. e = 2'-O-(2-methoxyethyl) (MOE); [5mC] = 5-methylcytosine; d = 2'-deoxy (DNA)
Listed next: entries and their corresponding % inhibition.
Please provide the amount together with its unit, number first.

Here are 5 substances together with their reported answers.
Value of measured % inhibition for the entry 546827 (e[5mC]*eA*eG*eT*eA*dT*d[5mC]*dA*d[5mC]*dT*dG*dT*dA*d[5mC]*dT*eA*eG*eT*eT*eT; antisense) [compound 546827] : 98%

Value of measured % inhibition for the entry 546826 (eA*eG*eT*eA*eT*d[5mC]*dA*d[5mC]*dT*dG*dT*dA*d[5mC]*dT*dA*eG*eT*eT*eT*e[5mC]; antisense) [compound 546826] : 90%

Value of measured % inhibition for the entry 546846 (e[5mC]*eT*eG*eT*e[5mC]*d[5mC]*dT*dA*dT*dA*dT*d[5mC]*dA*d[5mC]*dT*eG*eT*e[5mC]*e[5mC]*eT; antisense) [compound 546846] : 95%

Value of measured % inhibition for the entry 531231 (eT*eA*eT*e[5mC]*eA*d[5mC]*dT*dG*dT*dA*d[5mC]*dT*dA*dG*dT*eT*eT*e[5mC]*e[5mC]*eT) [compound 531231] : 85%

Value of measured % inhibition for the entry 546753 (e[5mC]*eT*eG*eG*e[5mC]*dT*d[5mC]*dA*d[5mC]*dT*dA*dT*dA*dG*dG*e[5mC]*e[5mC]*e[5mC]*e[5mC]*eA; antisense) [compound 546753] : 91%

Field: next substance
Value of measured % inhibition for the entry 546825 (eG*eT*eA*eT*e[5mC]*dA*d[5mC]*dT*dG*dT*dA*d[5mC]*dT*dA*dG*eT*eT*eT*e[5mC]*e[5mC]; antisense) [compound 546825] : 96%
